Test system: goosegrass (Eleusine indica)
protocol.text: Test B pre-/postemergence plant response
Assay type: in vivo
settings: 62 g ai/ha, postemergence; 0 is no effect, 100 is complete control; 13 to 15 days
Quick reference for Goosegrass plant response rating (0 to 100 scale) among some compounds
readout.name: Goosegrass plant response rating (0 to 100 scale)

>>> df
                                   compound  reported_result
0  CCCn1c(-c2cccc(OC)c2)ncc(C(=O)C2=C(O)CCCC2=O)c1=O [Compound 100]               70
1  O=C1CCCC(O)=C1C(=O)c1cnc(-c2ccccc2)n(C2CCOCC2)c1=O [Compound 129]               85
2  O=C1CCCC(O)=C1C(=O)c1cnc(-c2cccs2)n(CC2CCCO2)c1=O (centres unmarked) [Compound 109]               75
3  CCCCn1c(CCC)ncc(C(=O)C2=C(O)CCCC2=O)c1=O [Compound 75]               80
4  CC(C)Cc1ncc(C(=O)C2=C(O)CCCC2=O)c(=O)n1-c1ccccc1 [Compound 68]               70
5  O=C1CCCC(O)=C1C(=O)c1cnc(-c2ccsc2)n(CC2CCCO2)c1=O (centres unmarked) [Compound 98]               75
6  COCCn1c(-c2ccsc2)ncc(C(=O)C2=C(O)CCCC2=O)c1=O [Compound 97]               70
7  CCCn1c(-c2cccc(F)c2)ncc(C(=O)C2=C(O)CCCC2=O)c1=O [Compound 127]               75

----------
Test system: wheat (Triticum aestivum)
protocol.text: Test B pre-/postemergence plant response
Type: in vivo
settings: Preemergence, 31 g ai/ha; scale 0 to 100 (0 no effect, 100 complete control)
Quick reference for Plant response rating, Wheat among some molecules
readout.name: Plant response rating, Wheat

>>> print(df.to_string())
                            molecule_smiles  reported_result
0  Cc1ccc(C)c(-n2c(-c3ccccc3)ncc(C(=O)C3=C(O)CCCC3=O)c2=O)c1                0
1  Cc1cccc(-n2c(-c3ccccc3)ncc(C(=O)C3=C(O)CCCC3=O)c2=O)c1F                0
2  CCn1c(-c2ccccc2)ncc(C(=O)C2=C(O)CCCC2=O)c1=O                0
3  O=C1CCCC(O)=C1C(=O)c1cnc(-c2ccccc2)n(-c2ccccc2Br)c1=O                0
4  CCCCn1c(C2CC2)ncc(C(=O)C2=C(O)CCCC2=O)c1=O                0
5  Cc1cccc(-n2c(-c3ccccc3)ncc(C(=O)C3=C(O)CCCC3=O)c2=O)c1C                0
6  O=C1CCCC(O)=C1C(=O)c1cnc(-c2cccs2)n(-c2ccccc2)c1=O                0

----------
Tested on: lambsquarters (Chenopodium album)
protocol.text: Test B pre-/postemergence plant response
Assay type: in vivo
settings: Postemergence, 250 g ai/ha; scale 0 to 100 (0 no effect, 100 complete control); 13 to 15 days
Text: […] Treated plants and controls were maintained in a greenhouse for 13 to 15 days, after which time all treated plants were visually evaluated and compared to controls. […]
readout.name: Plant response rating, Lambsquarters

>>> print(df.to_string())
                            molecule_smiles                  system_under_test  reported_result
0  O=C1CCCC(O)=C1C(=O)c1cnc(-c2ccccc2)n(C2CCCCCC2)c1=O  lambsquarters (Chenopodium album)              100
1  O=C1CCCC(O)=C1C(=O)c1cnc(-c2ccccc2)n(C2CCOCC2)c1=O  lambsquarters (Chenopodium album)               98
2  CCCn1c(-c2cccc(F)c2)ncc(C(=O)C2=C(O)CCCC2=O)c1=O  lambsquarters (Chenopodium album)               95
3  Cc1ccc(-n2c(-c3cc(F)cc(F)c3)ncc(C(=O)C3=C(O)CCCC3=O)c2=O)cc1  lambsquarters (Chenopodium album)              100

----------
System: large crabgrass (Digitaria sanguinalis)
protocol.text: Test B pre-/postemergence plant response
Type: in vivo
settings: Postemergence, 250 g ai/ha; scale 0 to 100 (0 no effect, 100 complete control)
readout.name: Plant response rating, Crabgrass, Large

                                   compound                        system_under_test                             readout_name  reported_result
0  CCCn1c(-c2ccccc2)ncc(C(=O)C2=C(O)CCCC2=O)c1=O  large crabgrass (Digitaria sanguinalis)  Plant response rating, Crabgrass, Large               98
1  COCCn1c(-c2ccco2)ncc(C(=O)C2=C(O)CCCC2=O)c1=O  large crabgrass (Digitaria sanguinalis)  Plant response rating, Crabgrass, Large               85
2  CCCn1c(-c2cccc(OC)c2)ncc(C(=O)C2=C(O)CCCC2=O)c1=O  large crabgrass (Digitaria sanguinalis)  Plant response rating, Crabgrass, Large               80
3  CCCCc1ncc(C(=O)C2=C(O)CCCC2=O)c(=O)n1-c1ccccc1C  large crabgrass (Digitaria sanguinalis)  Plant response rating, Crabgrass, Large               85
4  O=C1CCCC(O)=C1C(=O)c1cnc(C2CC2)n(-c2ccccc2)c1=O  large crabgrass (Digitaria sanguinalis)  Plant response rating, Crabgrass, Large               98
5  CCCCn1c(CCC)ncc(C(=O)C2=C(O)CCCC2=O)c1=O  large crabgrass (Digitaria sanguinalis)  Plant response rating, Crabgrass, Large              100
6  O=C1CCCC(O)=C1C(=O)c1cnc(-c2cccs2)n(CC2CCCO2)c1=O (stereo not drawn)  large crabgrass (Digitaria sanguinalis)  Plant response rating, Crabgrass, Large               85
7  O=C1CCCC(O)=C1C(=O)c1cnc(-c2ccsc2)n(C2CCCCC2)c1=O  large crabgrass (Digitaria sanguinalis)  Plant response rating, Crabgrass, Large               95
8  CCOCCn1c(-c2ccccc2)ncc(C(=O)C2=C(O)CCCC2=O)c1=O  large crabgrass (Digitaria sanguinalis)  Plant response rating, Crabgrass, Large               90

----------
Tested on: green foxtail (Setaria viridis)
protocol.text: Test B pre-/postemergence plant response
Assay type: in vivo
settings: 62 g ai/ha, postemergence; 0 is no effect, 100 is complete control; 13 to 15 days
readout.name: Foxtail, Green plant response rating (0 to 100 scale)

                                   compound  reported_result
0   CCCc1ncc(C(=O)C2=C(O)CCCC2=O)c(=O)n1CCC               70
1  CCCn1c(-c2ccsc2)ncc(C(=O)C2=C(O)CCCC2=O)c1=O               60
2  O=C1CCCC(O)=C1C(=O)c1cnc(C2CC2)n(-c2ccccc2)c1=O               80
3  CCCCn1c(CCC)ncc(C(=O)C2=C(O)CCCC2=O)c1=O               85
4  O=C1CCCC(O)=C1C(=O)c1cnc(C2CCCC2)n(-c2ccccc2)c1=O               80
5  O=C1CCCC(O)=C1C(=O)c1cnc(-c2ccccc2)n(C2CCCCCC2)c1=O               90
6  COCCCn1c(-c2ccccc2)ncc(C(=O)C2=C(O)CCCC2=O)c1=O               85
7  O=C1CCCC(O)=C1C(=O)c1cnc(-c2ccsc2)n(CC2CCCO2)c1=O (stereo not shown)               85
8  COCCOCCn1c(-c2ccccc2)ncc(C(=O)C2=C(O)CCCC2=O)c1=O               85
9  CC(C)Cc1ncc(C(=O)C2=C(O)CCCC2=O)c(=O)n1-c1ccccc1               85

----------
Tested on: large crabgrass (Digitaria sanguinalis)
protocol.text: Test B pre-/postemergence plant response
Assay type: in vivo
settings: 31 g ai/ha, postemergence; scale 0 to 100, 0 is no effect, 100 is complete control
Description: […] Treated plants and controls were maintained in a greenhouse for 13 to 15 days, after which time all treated plants were visually evaluated and compared to controls. […]
readout.name: Plant response rating, Crabgrass, Large

>>> df
                            molecule_smiles  reported_result
0  O=C1CCCC(O)=C1C(=O)c1cnc(-c2ccsc2)n(C2CCCCC2)c1=O               85
1  O=C1CCCC(O)=C1C(=O)c1cnc(C2CCCC2)n(-c2ccccc2)c1=O               80
2  CC(C)Cc1ncc(C(=O)C2=C(O)CCCC2=O)c(=O)n1-c1ccccc1               75
3  O=C1CCCC(O)=C1C(=O)c1cnc(-c2cccs2)n(-c2ccccc2)c1=O               50
4  CCCc1ncc(C(=O)C2=C(O)CCCC2=O)c(=O)n1-c1cccc(C)c1               80
5  O=C1CCCC(O)=C1C(=O)c1cnc(C2CC2)n(-c2ccccc2)c1=O               85
